Attribution: the supplement of paper PMC10266784

B1: library; numbered along this chain (parent)
chain: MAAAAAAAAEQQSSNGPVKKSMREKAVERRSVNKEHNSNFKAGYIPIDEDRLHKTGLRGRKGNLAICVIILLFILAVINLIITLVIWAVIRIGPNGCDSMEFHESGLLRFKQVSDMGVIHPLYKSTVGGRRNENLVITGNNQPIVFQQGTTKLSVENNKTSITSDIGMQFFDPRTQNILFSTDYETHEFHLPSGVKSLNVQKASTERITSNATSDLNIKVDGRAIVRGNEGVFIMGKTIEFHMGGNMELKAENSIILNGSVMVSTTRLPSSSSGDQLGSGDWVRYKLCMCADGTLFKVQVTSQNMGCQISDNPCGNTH

Variants of: B1
Experiment: SGCB cell-surface expression functional score (HA stain, bin4 vs bin1, normalised to synonymous) (log10 ratio); higher = more cell-surface SGCB (functional)
readout-type: SGCB cell-surface expression functional score (log10)
Just the number.

I'd like to know its SGCB cell-surface expression functional score (log10). The variant in question is Y184I
-1.85

Please report the recorded SGCB cell-surface expression functional score (log10) for I82G .
-0.2

Param item = F146A ; retrieve measured SGCB cell-surface expression functional score (log10).
-1.22
